Reported %Inh is given for each of the following compounds.
- System: CLK4
- condition_description: concentration: 1 μM,replicates: in singlicate; n = 1;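 note: KINOMEscan kinase panel screen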
Param answer (str): number followed by unit.

Answered examples (5):
CC(C)N1C(=O)Cc2cc(Nc3ncc(C(F)(F)F)c(NCc4cccc(S(C)(=O)=O)c4)n3)ccc21 | 38%
CCN(CC)CCOc1ccc(Nc2ncc3cc(-c4c(Cl)cccc4Cl)c(=O)n(C)c3n2)cc1 | 0%
Nc1nc(Nc2ccccc2)cc(-c2ccc3c(N)n[nH]c3c2)n1 | 80%
O=C(NCCCN1CCOC1=O)c1cnc(NCc2cc(Cl)ccc2Cl)nc1NC1CCCC1 | 4%
C=CC(=O)Nc1cc2c(Nc3ccc(F)c(Cl)c3)ncnc2cc1OCCCN1CCOCC1 | 4%

Give %Inh for the following compound: COc1ccc(C[C@@H](CN)NC(=O)c2cc(Br)c(-c3ccnc4[nH]ccc34)s2)cc1.Cl.Cl 95.2%

Give %Inh for the following compound: O=C(NCCNc1ccnc(NCc2ccc(F)cc2)n1)c1cc2ccccc2s1 22%

---

Reported %Inh is given for each of the following compounds.
- System: VEGFR2
- Construct: gene KDR
- condition_description: concentration: 1 μM,replicates: in singlicate; n = 1
Form entry: value (%) — number only.

Answered examples (6):
Cc1ccc2c(-c3ccncc3)c(-c3ccc(F)cc3)nn2c1.Cl | 2
Cc1n[nH]c2ccc(-c3cc(OC[C@@H](N)Cc4ccccc4)cnc3-c3ccoc3)cc12.O=C(O)C(F)(F)F.O=C(O)C(F)(F)F | 0
CN(C)CC(O)COc1ccc(Nc2nccc(-c3cnn4nc(N5CCOCC5)ccc34)n2)cc1 (stereo not shown) | 20
CCN(CC)CCCCNc1ncc2cc(-c3c(Cl)cccc3Cl)c(NC(=O)NC(C)(C)C)nc2n1 | 90.4
O=C(NCCNc1ccnc(NCc2ccc(F)cc2)n1)c1cc2ccccc2s1 | 0
C[C@@H]1CCN(C(=O)CC#N)C[C@@H]1N(C)c1ncnc2[nH]ccc12 | 0

Provide %Inh, recorded with VEGFR2, of CN(C)CCOc1ccc(-c2cc(-c3c[nH]nc3-c3ccccn3)ccn2)cc1 6

Provide %Inh, recorded with VEGFR2, of CC(C)N1C(=O)Cc2cc(Nc3ncc(C(F)(F)F)c(NCc4cccc(S(C)(=O)=O)c4)n3)ccc21 74

Provide %Inh, recorded with VEGFR2, of Cc1occc1-c1nc(N)c(OC[C@@H](N)Cc2c[nH]c3ccccc23)cc1-c1cc2c(C)n[nH]c2cn1 0

Provide %Inh, recorded with VEGFR2, of CCN(CC)CCOc1ccc(Nc2ncc3cc(-c4c(Cl)cccc4Cl)c(=O)n(C)c3n2)cc1 97.6

---

- System: CDK4-cyclinD3
- condition_description: concentration: 1 μM,replicates: in singlicate; n = 1
measure_name: %Inh (%)
Form entry: value (%) — number only.

Answered examples (5):
COc1ccc(C[C@@H](CN)NC(=O)c2cc(Br)c(-c3ccnc4[nH]ccc34)s2)cc1.Cl.Cl | 28
O=C(NCCNc1ccnc(NCc2ccc(F)cc2)n1)c1cc2ccccc2s1 | 11
C=CC(=O)Nc1cc2c(Nc3ccc(F)c(Cl)c3)ncnc2cc1OCCCN1CCOCC1 | 11
CN(C)CC(O)COc1ccc(Nc2nccc(-c3cnn4nc(N5CCOCC5)ccc34)n2)cc1 (stereo not drawn) | 98.3
C[C@@H]1CCN(C(=O)CC#N)C[C@@H]1N(C)c1ncnc2[nH]ccc12 | 6

Give %Inh for the following molecule: Cc1ccc2c(-c3ccncc3)c(-c3ccc(F)cc3)nn2c1.Cl 0

Give %Inh for the following molecule: Nc1nc(Nc2ccccc2)cc(-c2ccc3c(N)n[nH]c3c2)n1 0

Give %Inh for the following molecule: O=C(NCCCN1CCOC1=O)c1cnc(NCc2cc(Cl)ccc2Cl)nc1NC1CCCC1 0

Give %Inh for the following molecule: CCn1c(-c2nonc2N)nc2c(C#CC(C)(C)O)nc(OCCN)cc21.Cl.Cl 0
